# measurement-notes: inhibitors of hydroxyurea-induced Chk1 phosphorylation, primary screen, imaging, HeLa, phospho-Chk1 nuclear intensity (AID 1187); further: test concentration not given here
# test-conditions: hydroxyurea-induced phospho-Chk1 immunofluorescence imaging, higher = more signal
Bucketed by reported z-score, buckets being low group: < -0.3; middle group: ≥ -0.3 and < 0.2; high group: ≥ 0.2

These recorded examples may help you get a feel for the data.
molecule	group
O=C1OCCC=C[C@H]2OC34C=CCN(Cc5ccccc5)C(=O)[C@H]3N(CCO)C(=O)[C@@H]4C12 (stereo not given in full)	low group
C=CCC(OC(C)=O)[C@@H]1[C@@H](N(Cc2cc3ccccc3o2)C(=O)Cc2ccc(F)cc2)c2cc(OCCCO)ccc2N1C(=O)c1ccc(-c2ccccc2)cc1 (stereo not given in full)	middle group
CCc1cccc(NC(=O)O[C@H]2[C@H](OC(=O)Nc3ccccc3)[C@@H](OC(=O)Nc3ccccc3)[C@@H](OC)O[C@@H]2CO)c1	middle group

Problem: Lab log: COc1ccc([Si](C)(C)[C@@H]2[C@@H](CCO)O[C@]3(C(=O)N(Cc4ccccc4)c4ccccc43)[C@H]2C)cc1 — assign z-score category
Result: high group

Problem: Lab log: COCCOC(=O)N1C(=O)[C@@]2(c3cc(C#CCCO)ccc31)[C@H](c1ccc(O)cc1)N1[C@H](c3ccccc3)[C@H](c3ccccc3)OC(=O)[C@H]1[C@@H]2C(=O)Nc1nc2ccccc2s1 — assign z-score category
Result: low group

Problem: Lab log: CCOC(=O)C1=CC[C@@H](c2ccccc2)N(S(=O)(=O)c2ccc(C)cc2)[C@H]1C — assign z-score category
Result: low group

Problem: Lab log: COc1cc(Cc2cc3c(c(CCc4ccccc4)n2)[Si](C(C)C)(C(C)C)OC3)cc(OC)c1OC — assign z-score category
Result: middle group

Problem: Lab log: CO[C@H]1O[C@H](CO)[C@@H](OC(=O)Nc2ccc3c(c2)OCO3)[C@H](OC(=O)Nc2ccccc2)[C@@H]1OC(=O)Nc1ccccc1 — assign z-score category
Result: high group

Problem: Lab log: C=CC[C@]1(C(=O)O)N=C(c2ccc(OCCCO)cc2)O[C@H]1c1ccccc1N=[N+]=[N-] — assign z-score category
Result: middle group

Problem: Lab log: CC(C)[Si]1(C(C)C)O[C@@H](c2ccccc2)c2cc(C3CC3)nc(-c3ccc(Oc4ccccc4)cc3)c21 — assign z-score category
Result: high group

Problem: Lab log: CN1C(=O)C2C=CC(C(O)c3ccc(N(C)C)cc3)N(Nc3ccc([N+](=O)[O-])cc3[N+](=O)[O-])C2C1=O (stereo not given) — assign z-score category
Result: middle group

Problem: Lab log: NC(=O)[C@H]1[C@@H]2C(=O)O[C@@H](c3ccccc3)[C@@H](c3ccccc3)N2[C@@H](c2ccc(O)cc2)[C@]12C(=O)Nc1ccc(C#CCCO)cc12 — assign z-score category
Result: low group

Problem: Lab log: C=C(C(=O)CC[C@H](OC(=O)c1ccccc1-c1ccccc1C(=O)O)c1ccc(CO)o1)C(C)C — assign z-score category
Result: high group

Problem: Lab log: [N-]=[N+]=NCc1ccccc1[C@H]1OC(c2ccc(OCCCO)cc2)=N[C@@]1(Cc1ccccc1N=[N+]=[N-])C(=O)NCc1ccccc1 — assign z-score category
Result: low group

Problem: Lab log: C=CC[C@]1(C(=O)OC)N=C(c2ccc(OCCCO)cc2)O[C@H]1c1ccccc1CN=[N+]=[N-] — assign z-score category
Result: middle group

Problem: Lab log: COCCOC(=O)N1C(=O)[C@@]2(c3cc(C#CC4=CCCCC4)ccc31)[C@H](c1ccc(O)cc1)N1[C@H](c3ccccc3)[C@H](c3ccccc3)OC(=O)[C@H]1[C@@H]2C(=O)N1CCCCCCC1 — assign z-score category
Result: middle group

Problem: Lab log: C=CC(=O)O[C@@H](Cc1ccccc1)[C@H]1C2C=CCCC=C2CN1Cc1cccc(Cl)c1 (stereo not given in full) — assign z-score category
Result: high group
